Quick record: IC50, METTL3/METTL14 (Homo sapiens).

Requested read-out IC50, target or system METTL3/METTL14 (Homo sapiens), entry Clc1cc(-c2cn(Cc3cn4cc(CNCC5CCC5)ccc4n3)nn2)c2cn[nH]c2c1 < 5 nM

// fetch METTL3/METTL14 (Homo sapiens) IC50 for COc1cc(-c2cn(Cc3cn4cc(CNCC5CCC5)ccc4n3)nn2)c2cn[nH]c2c1 < 5 nM

Item: CC1(C)CCN(Cc2ccc3nc(Cn4cc(-c5cc(Br)cc6[nH]ncc56)nn4)cn3c2)CC1 Test system: METTL3/METTL14 (Homo sapiens) Read-out: IC50 Value: ? 8 nM

# returns recorded IC50 (system: METTL3/METTL14 (Homo sapiens)) for O=C(O)[C@H]1O[C@@H](Oc2cc3oc(-c4ccc(O)cc4)cc(=O)c3c(O)c2O)[C@H](O)[C@@H](O)[C@@H]1O [SCUTELLARIN] 19900 nM

* * *

IC50 data for Alpha-ketoglutarate-dependent dioxygenase FTO (Homo sapiens, UniProt Q9C0B1) follow.
Write the number in µM without appending the unit.

What measured IC50 goes with COc1ncc(-c2ccc3sc(N)nc3c2)cn1 ? 3.4

Any idea what IC50 was measured for O=C(O)CC[C@@H](O)C(=O)O ? 133
